# System: U-251
# protocol details: NCI tumour cell line growth inhibition, 48 h
Calls of active or inactive are those of the source. No stated cut-off is given here; in the data, active = GI50 up to about 1.1 µM and inactive = higher.
measured attribute: GI50

These recorded examples may help you get a feel for the data.
- molecule: "C#C[C@]1(O)CC[C@H]2[C@@H]3CCc4cc(OC(=O)c5cccc6cc7ccccc7nc56)ccc4[C@H]3CC[C@@]21C"
  system: "U-251"
  GI50: "24 µM (inactive)"
- molecule: "O=C(CCBr)N1CCN(C(=O)CCBr)CC1 [PIPOBROMAN]"
  system: "U-251"
  GI50: "55 µM (inactive)"

Bench note: what GI50 did c1cc(-c2csc(-c3ccsc3)c2)cs1 show? > 100 µM (inactive)

###

# Test system: ACHN
# protocol details: NCI tumour cell line growth inhibition, 48 h
Active and inactive are the calls of the source. No stated cut-off is given here; in the data, active = GI50 up to about 1.1 µM and inactive = higher.
// allowed return values: active, inactive

Check out these entries, answers already filled in.
- molecule: "O=C(O)/C(=C\\c1ccc(O)cc1)c1cccc2ccccc12"
  system: "ACHN"
  category label: "inactive"
- molecule: "COc1ccc2c(c1)CCN1CCCc3ccccc3C21 (configuration not stated)"
  system: "ACHN"
  category label: "inactive"
- molecule: "N[C@H](C(=O)O)[C@H](Cl)CC(=O)O"
  system: "ACHN"
  category label: "inactive"
- molecule: "O=C(O)c1ccccc1-c1ccccc1C(=O)Nc1ccc2c(c1)nc(O)c1ccccc12"
  system: "ACHN"
  category label: "inactive"
- molecule: "COC(=O)c1ccc2cc(O)ccc2c1"
  system: "ACHN"
  category label: "inactive"

Please state the recorded outcome for this molecule: CCCCCCCCSC(SCCCCCCCC)=C1C(=O)N(c2ccccc2)N=C1C inactive

Please state the recorded outcome for this molecule: CC(C)(C)OC(=O)N1N=NC2C1C1CC(OCc3ccccc3)(OCc3ccccc3)C2O1 (configuration not stated) inactive

###

# Test system: LOX IMVI
# protocol details: NCI tumour cell line growth inhibition, 48 h
The source made the active and inactive calls. Rule as the data show it: active = GI50 up to about 1.1 µM and inactive = higher.
Recorded GI50, one value per entry.

These recorded examples may help you get a feel for the data.
- compound: "COc1cccc(NC(=O)C(=O)C(C(=O)c2ccccc2F)C2OC(=O)c3ccccc32)c1 (centres undefined)"
  test value: "29.9 µM (inactive)"
- compound: "COC(=O)CSSCc1ccc([N+](=O)[O-])cc1"
  test value: "12.8 µM (inactive)"
- compound: "CC(O)C1CC1(CO)CNc1cc(Cl)nc(N)n1 (centres undefined)"
  test value: "> 100 µM (inactive)"

Bench note: what GI50 did COc1ccc(C(=O)/C=C/c2cc(O)c(O)c(F)c2F)c(OC)c1 show? 13.6 µM (inactive)

###

# Tested on: SK-MEL-2
# protocol details: NCI tumour cell line growth inhibition, 48 h
Calls of active or inactive are those of the source. Cut-off read from the data, not from the text of the source: active = GI50 up to about 1.1 µM and inactive = higher.
// allowed return values: active, inactive

- compound: "CC1(C)C2CC3C(C)(C2)C31c1cc(Cl)ccc1N (stereo unspecified)"
  system: "SK-MEL-2"
  category label: "inactive"
- compound: "Oc1ccc2ccccc2c1C(c1ccc(Cl)cc1)c1c(O)ccc2ccccc12"
  system: "SK-MEL-2"
  category label: "inactive"
- compound: "O=C1/C(=C/c2cccc(Cl)c2)CCCc2ccccc21"
  system: "SK-MEL-2"
  category label: "inactive"
- compound: "CC(C)NC(NC(C)C)=C(S(=O)(=O)C(F)(F)C(F)(F)C(F)(F)C(F)(F)F)S(=O)(=O)C(F)(F)C(F)(F)C(F)(F)C(F)(F)F"
  system: "SK-MEL-2"
  category label: "inactive"

Continue with the next compound.
Please state the recorded outcome for this compound: CN(C)/N=N/c1ccc2[nH]c(=O)[nH]c2c1 inactive

The values you see were collected from ChEMBL document CHEMBL1201862.
